test: Cytotoxicity against human HL7702 cells expressing human DHODH assessed as reduction in cell viability measured after 96 hrs by MTT assay; type: toxicity, cell-based; conditions: HL7702 (L02) cells expressing human DHODH
EXPERIMENTAL READOUT: IC50 at 96 h

CCC(C)Oc1cc(NC(=O)/C(C#N)=C(/C)O)c(F)cc1-c1ccc2ccccc2c1 (configuration not stated): 6.48 µM

# input for lookup
[Q] I would be grateful if you could share the reported IC50 at 96 h for CCC(C)Oc1cc(NC(=O)/C(C#N)=C(/C)O)c(F)cc1-c1cccc(C(F)(F)F)c1 (configuration not stated) .
[A] > 10 µM
